Origin of the recorded values: the supplement of paper PMC10126150

System: ATP;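 note: ATP exposure 15 min at 22 °C before imaging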
Experiment: switch fluorescence ratio, 500 uM ATP over buffer (Cy3 cluster intensity, sum of 5 cycles each) (fold (ratio)); higher = stronger signal-on switching upon ATP binding; sequences stand for … in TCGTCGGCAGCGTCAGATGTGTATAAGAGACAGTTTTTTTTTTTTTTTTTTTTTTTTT…TC
Details: aptamer strand: ATP DNA aptamer (quencher-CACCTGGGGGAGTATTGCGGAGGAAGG + anchor), 100 nM annealed; ATP concentration: 500 uM
Property Measured: switch fluorescence ratio
Give the figure by itself; no unit, no explanation.

Recorded results for 3 sequences are shown here.
{"Entry Sequence": "ATATAATGAT", "switch fluorescence ratio": 1.02}
{"Entry Sequence": "CCAAGGGAGG", "switch fluorescence ratio": 1.01}
{"Entry Sequence": "TTATTGTGCG", "switch fluorescence ratio": 1.03}

Moving on to the next sequence.
Any idea what switch fluorescence ratio was measured for CAGTACGGTT ?
1
